System Tested: Glucocorticoid receptor (Rattus norvegicus, UniProt P06536)
Sequence (P06536 whole entry): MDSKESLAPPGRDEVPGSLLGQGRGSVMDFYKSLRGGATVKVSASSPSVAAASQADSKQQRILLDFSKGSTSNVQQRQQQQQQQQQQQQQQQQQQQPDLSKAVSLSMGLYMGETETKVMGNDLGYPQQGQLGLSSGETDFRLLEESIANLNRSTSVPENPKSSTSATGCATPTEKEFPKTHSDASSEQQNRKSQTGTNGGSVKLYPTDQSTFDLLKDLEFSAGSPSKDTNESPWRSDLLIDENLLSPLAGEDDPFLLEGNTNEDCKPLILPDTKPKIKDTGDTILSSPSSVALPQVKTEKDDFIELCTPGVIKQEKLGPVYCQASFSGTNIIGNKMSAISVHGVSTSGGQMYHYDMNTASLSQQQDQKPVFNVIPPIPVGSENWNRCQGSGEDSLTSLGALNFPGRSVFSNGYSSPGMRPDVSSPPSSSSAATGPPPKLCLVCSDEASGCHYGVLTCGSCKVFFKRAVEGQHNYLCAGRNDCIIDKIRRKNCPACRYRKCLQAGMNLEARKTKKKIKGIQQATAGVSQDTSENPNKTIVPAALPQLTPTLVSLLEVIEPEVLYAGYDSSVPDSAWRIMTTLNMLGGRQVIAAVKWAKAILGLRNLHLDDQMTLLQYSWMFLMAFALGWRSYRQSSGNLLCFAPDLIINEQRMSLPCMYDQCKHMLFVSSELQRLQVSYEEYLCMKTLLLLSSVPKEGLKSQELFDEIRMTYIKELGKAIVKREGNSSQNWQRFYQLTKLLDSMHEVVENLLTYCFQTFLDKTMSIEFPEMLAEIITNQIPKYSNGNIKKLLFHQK
Method Summary: Transactivation of glucocorticoid receptor in rat H42E cells assessed as induction of TAT measuring degradation of tyrosine to p-hydroxy phenyl pyruvate at 1 uM relative to prednisolone
Format: cell-based
Particulars: read-out: Efficacy
// reported Emax at 1 µM for each item listed
Metric: Emax at 1 µM

# Given Smiles, System Tested, Metric, Result
records = [
    ("C[C@]12C=CC(=O)C=C1CC[C@@H]1[C@@H]2[C@@H](O)C[C@@]2(C)[C@H]1CC[C@]2(O)C(=O)CSc1ncc2ccccc2n1", "Glucocorticoid receptor (Rattus norvegicus, UniProt P06536)", "Emax at 1 µM", "2%"),
    ("C[C@]12C=CC(=O)C=C1CC[C@@H]1[C@@H]2[C@@H](O)C[C@@]2(C)[C@H]1CC[C@]2(O)C(=O)CSc1ccc2ccccc2n1", "Glucocorticoid receptor (Rattus norvegicus, UniProt P06536)", "Emax at 1 µM", "56%"),
    ("C[C@]12C=CC(=O)C=C1CC[C@@H]1[C@@H]2[C@@H](O)C[C@@]2(C)[C@H]1CC[C@]2(O)C(=O)CSc1nc2ccccc2s1", "Glucocorticoid receptor (Rattus norvegicus, UniProt P06536)", "Emax at 1 µM", "19%"),
    ("C[C@@H]1C[C@H]2[C@@H]3CCC4=CC(=O)C=C[C@]4(C)[C@H]3[C@@H](O)C[C@]2(C)[C@@]1(O)C(=O)CSc1nnc(-c2ccccc2)o1", "Glucocorticoid receptor (Rattus norvegicus, UniProt P06536)", "Emax at 1 µM", "65%"),
    ("C[C@@H]1C[C@H]2[C@@H]3CCC4=CC(=O)C=C[C@]4(C)[C@H]3[C@@H](O)C[C@]2(C)[C@@]1(O)C(=O)CSc1ccc2ccccc2n1", "Glucocorticoid receptor (Rattus norvegicus, UniProt P06536)", "Emax at 1 µM", "45%"),
    ("C[C@@H]1C[C@H]2[C@@H]3CCC4=CC(=O)C=C[C@]4(C)[C@H]3[C@@H](O)C[C@]2(C)[C@@]1(O)C(=O)CSc1nc2ccccc2[nH]1", "Glucocorticoid receptor (Rattus norvegicus, UniProt P06536)", "Emax at 1 µM", "3%"),
]

---

System Tested: Glucocorticoid receptor (Homo sapiens)
Sequence (P04150 whole entry): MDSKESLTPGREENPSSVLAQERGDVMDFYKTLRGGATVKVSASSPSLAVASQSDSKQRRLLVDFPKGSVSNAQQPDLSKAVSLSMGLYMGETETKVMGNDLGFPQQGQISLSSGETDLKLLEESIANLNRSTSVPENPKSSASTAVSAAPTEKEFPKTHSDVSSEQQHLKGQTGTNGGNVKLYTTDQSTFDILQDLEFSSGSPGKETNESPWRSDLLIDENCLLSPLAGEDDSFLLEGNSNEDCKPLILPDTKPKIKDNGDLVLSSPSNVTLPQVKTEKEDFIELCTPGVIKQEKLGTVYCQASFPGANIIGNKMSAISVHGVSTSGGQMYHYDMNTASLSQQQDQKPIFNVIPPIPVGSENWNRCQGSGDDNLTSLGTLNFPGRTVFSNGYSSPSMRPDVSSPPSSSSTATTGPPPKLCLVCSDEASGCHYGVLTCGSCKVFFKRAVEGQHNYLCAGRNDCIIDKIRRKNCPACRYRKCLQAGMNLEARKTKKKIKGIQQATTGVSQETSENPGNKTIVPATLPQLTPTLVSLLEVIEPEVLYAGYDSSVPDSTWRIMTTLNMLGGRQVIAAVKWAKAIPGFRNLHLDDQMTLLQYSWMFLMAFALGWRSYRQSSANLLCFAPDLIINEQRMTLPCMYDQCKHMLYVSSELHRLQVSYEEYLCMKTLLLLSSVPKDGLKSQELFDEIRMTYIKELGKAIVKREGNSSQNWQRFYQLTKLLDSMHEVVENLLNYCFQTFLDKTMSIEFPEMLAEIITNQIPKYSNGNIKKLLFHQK
Method Summary: Transrepression activity at glucocorticoid receptor in human H292 cells assessed as inhibition of TNF-stimulated IL-8 production
Type: cell-based
pIC50: −log10 of the molar value.
// reported pIC50 for each item listed

# Given Smiles, pIC50
rows = [
    ("C[C@]12C=CC(=O)C=C1CC[C@@H]1[C@@H]2[C@@H](O)C[C@@]2(C)[C@H]1CC[C@]2(O)C(=O)CSc1ccccn1", 7.36),
    ("C[C@@H]1C[C@H]2[C@@H]3CCC4=CC(=O)C=C[C@]4(C)[C@H]3[C@@H](O)C[C@]2(C)[C@@]1(O)C(=O)CO", 8.80),
    ("C[C@@H]1C[C@H]2[C@@H]3CCC4=CC(=O)C=C[C@]4(C)[C@H]3[C@@H](O)C[C@]2(C)[C@@]1(O)C(=O)CSc1nc2ccccc2s1", 8.24),
    ("C[C@@H]1C[C@H]2[C@@H]3CCC4=CC(=O)C=C[C@]4(C)[C@H]3[C@@H](O)C[C@]2(C)[C@@]1(O)C(=O)CSc1ccc2ccccc2n1", 7.33),
    ("C[C@]12C=CC(=O)C=C1CC[C@@H]1[C@@H]2[C@@H](O)C[C@@]2(C)[C@H]1CC[C@]2(O)C(=O)CSc1nc2ncccc2o1", 7.76),
    ("C[C@]12C=CC(=O)C=C1CC[C@@H]1[C@@H]2[C@@H](O)C[C@@]2(C)[C@H]1CC[C@]2(O)C(=O)CSc1nc2ncccc2[nH]1", 7.24),
]
